# Experimental Details: Dog 14-day GLP toxicology
# Format: in vivo
# Test Context: in vivo, 40 mg/kg/day
Endpoint Name: Cmax

Query: Look at this molecule and give its reported Cmax. Cn1c(=O)ccc2ccc(F)c(CCNC[C@H]3CN(c4cnc5c(n4)NC(=O)CO5)C(=O)O3)c21
Result: 25 µg/mL

====

# Target System: hERG K+ channel (Homo sapiens)
# Sequence (Q12809 whole entry): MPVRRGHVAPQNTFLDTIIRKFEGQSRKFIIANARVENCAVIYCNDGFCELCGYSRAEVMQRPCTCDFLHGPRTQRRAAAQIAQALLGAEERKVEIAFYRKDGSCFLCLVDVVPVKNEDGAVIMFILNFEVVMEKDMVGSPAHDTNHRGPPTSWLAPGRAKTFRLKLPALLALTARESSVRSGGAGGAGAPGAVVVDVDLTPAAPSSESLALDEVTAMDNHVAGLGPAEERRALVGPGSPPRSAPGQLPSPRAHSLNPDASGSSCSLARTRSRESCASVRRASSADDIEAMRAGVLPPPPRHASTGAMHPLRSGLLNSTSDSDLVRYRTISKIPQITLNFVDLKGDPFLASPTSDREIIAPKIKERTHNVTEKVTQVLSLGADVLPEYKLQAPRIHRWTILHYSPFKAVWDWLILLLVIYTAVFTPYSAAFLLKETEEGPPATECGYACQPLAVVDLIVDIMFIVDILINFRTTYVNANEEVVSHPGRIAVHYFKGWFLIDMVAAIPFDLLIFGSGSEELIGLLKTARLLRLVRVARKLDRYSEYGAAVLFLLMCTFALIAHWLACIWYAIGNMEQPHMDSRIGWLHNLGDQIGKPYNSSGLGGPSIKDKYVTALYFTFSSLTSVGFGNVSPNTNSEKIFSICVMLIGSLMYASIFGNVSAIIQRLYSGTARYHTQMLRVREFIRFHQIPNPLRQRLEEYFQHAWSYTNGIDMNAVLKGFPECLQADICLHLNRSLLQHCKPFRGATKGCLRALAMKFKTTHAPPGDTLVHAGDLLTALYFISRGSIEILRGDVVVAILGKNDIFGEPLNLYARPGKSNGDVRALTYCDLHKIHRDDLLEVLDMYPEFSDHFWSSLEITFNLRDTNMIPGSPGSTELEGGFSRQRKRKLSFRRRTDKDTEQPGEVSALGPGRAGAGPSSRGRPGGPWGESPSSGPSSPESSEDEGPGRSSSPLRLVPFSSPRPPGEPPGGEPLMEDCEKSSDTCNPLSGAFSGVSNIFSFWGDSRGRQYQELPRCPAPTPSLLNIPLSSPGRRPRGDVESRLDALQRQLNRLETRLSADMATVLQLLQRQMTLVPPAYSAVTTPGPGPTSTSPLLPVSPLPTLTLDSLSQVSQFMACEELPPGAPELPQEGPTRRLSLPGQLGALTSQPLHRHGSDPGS
# Experimental Details: hERG automated patch-clamp
Endpoint Name: IC50 (µM)
Please respond with the number in µM and leave the unit unwritten.

Query: Look at this compound and give its reported IC50. Cn1c(=O)ccc2ccc(F)c(CCNC[C@@H]3CN(c4cnc5c(n4)NC(=O)CO5)C(=O)O3)c21
Result: 60

====

# Experimental Details: First-in-human SAD study, PK
# Format: in vivo, healthy human volunteers
# Test Context: both, human, plasma, iv, 120 mg
Endpoint Name: half-life
Remember to put the unit after the number in your answer.

Query: Look at this compound and give its reported half-life. Cn1c(=O)ccc2ccc(F)c(CCNC[C@H]3CN(c4cnc5c(n4)NC(=O)CO5)C(=O)O3)c21
Result: 3.3 h

====

# Experimental Details: First-in-human SAD study, PK
# Format: in vivo, healthy human volunteers
# Test Context: both, human, plasma, iv, 1050 mg
Endpoint Name: half-life (h)
Please respond with the number in h and leave the unit unwritten.

Query: Look at this compound and give its reported half-life. Cn1c(=O)ccc2ccc(F)c(CCNC[C@H]3CN(c4cnc5c(n4)NC(=O)CO5)C(=O)O3)c21 [BWC0977]
Result: 8.4

====

# Tested on: Acinetobacter baumannii
# Experimental Details: MIC
# Test Context: Acinetobacter baumannii, IHMA/CARB-X MDR clinical isolates 2019, N=298
Endpoint Name: MIC90

{"columns": ["Molecule", "Endpoint Name", "Value Measured"],
 "data": [
  ["CO/N=C(\\C(=O)N[C@@H]1C(=O)N2C(C(=O)[O-])=C(C[N+]3(C)CCCC3)CS[C@H]12)c1csc(N)n1 [Cefepime]", "MIC90", "> 32 µg/mL"],
  ["CNC(C)C1CCC(N)C(OC2C(N)CC(N)C(OC3OCC(C)(O)C(NC)C3O)C2O)O1 (stereo not shown)", "MIC90", "> 32 µg/mL"],
  ["CC(C)(O/N=C(\\C(=O)N[C@@H]1C(=O)N2C(C(=O)[O-])=C(C[n+]3ccccc3)CS[C@H]12)c1csc(N)n1)C(=O)O", "MIC90", "> 32 µg/mL"],
  ["NCC[C@H](O)C(=O)N[C@@H]1C[C@H](N)[C@@H](O[C@H]2O[C@H](CN)[C@@H](O)[C@H](O)[C@H]2O)[C@H](O)[C@H]1O[C@H]1O[C@H](CO)[C@@H](O)[C@H](N)[C@H]1O", "MIC90", "> 64 µg/mL"]
]}

Query: Look at this molecule and give its reported MIC90. C[C@@H](O)[C@H]1C(=O)N2C(C(=O)O)=C(S[C@@H]3CN[C@H](C(=O)N(C)C)C3)[C@H](C)[C@H]12
Result: > 64 µg/mL

Query: Look at this molecule and give its reported MIC90. C[C@H]1c2cccc(O)c2C(=O)C2=C(O)[C@]3(O)C(=O)C(C(N)=O)=C(O)[C@@H](N(C)C)[C@@H]3[C@@H](O)[C@@H]21
Result: 64 µg/mL

Query: Look at this molecule and give its reported MIC90. Cn1c(=O)ccc2ccc(F)c(CCNC[C@H]3CN(c4cnc5c(n4)NC(=O)CO5)C(=O)O3)c21
Result: 1 µg/mL

Query: Look at this molecule and give its reported MIC90. C[C@H]1COc2c(N3CCN(C)CC3)c(F)cc3c(=O)c(C(=O)O)cn1c23
Result: > 32 µg/mL

Query: Look at this molecule and give its reported MIC90. NC[C@H]1O[C@H](O[C@H]2[C@H](O)[C@@H](O[C@H]3O[C@H](CO)[C@@H](O)[C@H](N)[C@H]3O)[C@H](N)C[C@@H]2N)[C@H](N)C[C@@H]1O
Result: > 32 µg/mL

Query: Look at this molecule and give its reported MIC90. CC(C)(O/N=C(\C(=O)N[C@@H]1C(=O)N2C(C(=O)[O-])=C(C[N+]3(CCNC(=O)c4ccc(O)c(O)c4Cl)CCCC3)CS[C@H]12)c1csc(N)n1)C(=O)O
Result: 4 µg/mL

====

# Experimental Details: Rat 14-day GLP toxicology / toxicokinetics
# Format: in vivo
# Test Context: in vivo, 75 mg/kg/day
Endpoint Name: Cmax

Query: Look at this compound and give its reported Cmax. Cn1c(=O)ccc2ccc(F)c(CCNC[C@H]3CN(c4cnc5c(n4)NC(=O)CO5)C(=O)O3)c21
Result: 26000 ng/mL

====

# Experimental Details: Dog 14-day GLP toxicology
# Type: in vivo
# Test Context: in vivo, 40 mg/kg/day
Endpoint Name: AUC(0-t) (ng·h/mL)
Please respond with the number in ng·h/mL and leave the unit unwritten.

Query: Look at this compound and give its reported AUC(0-t). Cn1c(=O)ccc2ccc(F)c(CCNC[C@H]3CN(c4cnc5c(n4)NC(=O)CO5)C(=O)O3)c21
Result: 90000

====

# Experimental Details: Rat 14-day GLP toxicology / toxicokinetics
# Assay type: in vivo
# Test Context: in vivo
Endpoint Name: NOAEL at 14 day (mg/kg/day)
Please respond with the number in mg/kg/day and leave the unit unwritten.

Query: Look at this molecule and give its reported NOAEL at 14 day. Cn1c(=O)ccc2ccc(F)c(CCNC[C@H]3CN(c4cnc5c(n4)NC(=O)CO5)C(=O)O3)c21
Result: 75

====

# Experimental Details: Rat 14-day GLP toxicology / toxicokinetics
# Type: in vivo
# Test Context: in vivo, 250 mg/kg/day, AUC0–24 at highest dose level
Endpoint Name: AUC(0-t) (µg·h/mL)
Please respond with the number in µg·h/mL and leave the unit unwritten.

Query: Look at this compound and give its reported AUC(0-t). Cn1c(=O)ccc2ccc(F)c(CCNC[C@H]3CN(c4cnc5c(n4)NC(=O)CO5)C(=O)O3)c21 [BWC0977]
Result: 355

====

# Experimental Details: Dog 14-day GLP toxicology
# Type: in vivo
# Test Context: in vivo
Endpoint Name: NOAEL at 14 day (mg/kg/day)
Please respond with the number in mg/kg/day and leave the unit unwritten.

Query: Look at this compound and give its reported NOAEL at 14 day. Cn1c(=O)ccc2ccc(F)c(CCNC[C@H]3CN(c4cnc5c(n4)NC(=O)CO5)C(=O)O3)c21
Result: 40
